Test system: RARg:RXRa (NR concentration 270 nM, RXRa partner concentration 90 nM)
Assay: PBM binding z-score (relative to random genomic background probes); higher = stronger binding; sequences stand for … in GC…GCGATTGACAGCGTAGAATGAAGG
READOUT_TYPE: PBM binding z-score

[[record]]
chain = "ACTAGCAAGCCAAGGGTCACTCAAGATTAGTCCG"
readout_type = "PBM binding z-score"
meas_value = 3.45

[[record]]
chain = "CCGATTGGGGCAGAAAGGTTACCATACCATCCGG"
readout_type = "PBM binding z-score"
meas_value = 1.61

[[record]]
chain = "GCTAGTTGGTCAGTAAAAGGTCACACGCCGGTCG"
readout_type = "PBM binding z-score"
meas_value = 5.72

[[record]]
chain = "AGAACGAGGGCACGCTGATTTGATAGCAGAGTAG"
readout_type = "PBM binding z-score"
meas_value = 1.65

[[record]]
chain = "ATCTCTAAGTAAAGATAGTTCAGTGAATGCAAAT"
readout_type = "PBM binding z-score"
meas_value = 0.945

[[record]]
chain = "ACTATTAGTTGACTTAGGGCAACCGTTACGACGC"
readout_type = "PBM binding z-score"
meas_value = 0.618

[[record]]
chain = "CAAACTAGGTCAAGAGGTTAAAGTCCGCTTCCCG"
readout_type = "PBM binding z-score"
meas_value = 6.18

[[record]]
chain = "CCGACTGGGGCAAAGTTACCATAACGCACAGCCA"
readout_type = "PBM binding z-score"
meas_value = 0.149

[[record]]
chain = "CCAGACAGGTGAAAGGTAGCTCAGTCTGGTACGC"
readout_type = "PBM binding z-score"
meas_value = 0.352

[[record]]
chain = "ATCTCTACGTAAAAGTTCAGTGAATCCCGAGGAT"
readout_type = "PBM binding z-score"
meas_value = 1.57

[[record]]
chain = "TCATATAGGTAGTACAGGTGAAAGTCGGCATCTA"
readout_type = "PBM binding z-score"
meas_value = 0.549

[[record]]
chain = "TCATATAGGTGAACAGGTGAAAGTCCGTAAGTTA"
readout_type = "PBM binding z-score"
meas_value = 1.52


###

Test system: PXR:RXRa (NR concentration 270 nM, RXRa partner concentration 90 nM)
Experiment: PBM binding z-score (relative to random genomic background probes); higher = stronger binding; sequences stand for … in GC…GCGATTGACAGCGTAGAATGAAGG
Each entry gets not satisfied if its PBM binding z-score stays under 1, and satisfied if its PBM binding z-score is 1 or above.

[[record]]
chain = "ACTAGTTGGTCAGCTGAGCTCACACACAATTCGG"
group_label = "not satisfied"

[[record]]
chain = "ATCTCTAGATAACCAAGTTCAGTGAATGCCGAAC"
group_label = "satisfied"

[[record]]
chain = "ACTTACGGGTCAACGAGGTTATTGCACGCGTATA"
group_label = "satisfied"

[[record]]
chain = "ACTAGCAGGCCAAGTTTGGTTCACTCAAACAAAG"
group_label = "not satisfied"

[[record]]
chain = "CCTTACGGGTCATTGACAGGTTATAGCATTTGGA"
group_label = "satisfied"

[[record]]
chain = "CCTGCTAGGTCAATCGTCAGCTAAAGCAGCTCGC"
group_label = "not satisfied"

[[record]]
chain = "TCATATAGGTATAGGTGAAAGTCGAACGATATGA"
group_label = "not satisfied"

[[record]]
chain = "AGAGCGAGGGCACGCTGAGTTGATAGCAGAGTAG"
group_label = "satisfied"

[[record]]
chain = "GCGACTGGGACAAAGCAGGTTACCATAAGGTTGG"
group_label = "not satisfied"

[[record]]
chain = "CCGACTGGGGCAGAAAGGTTACCTTACCATCCGG"
group_label = "not satisfied"

[[record]]
chain = "CAAACTACGTCACCGGAAGGTCAAAGTCCGCATG"
group_label = "satisfied"

[[record]]
chain = "CAAACTAGGTTACAGAGGTCAAAGTCCGTGCGTA"
group_label = "satisfied"

[[record]]
chain = "ATATGTAGGCTATCGGGTCATTCAGTTTGCGCAT"
group_label = "satisfied"

[[record]]
chain = "CAAACTACGTCAAAGGTCAAAGTCGAGCCAACCA"
group_label = "satisfied"

[[record]]
chain = "CAAACTAGTTCAAGGTCAAAGTCGGTTTGTGCCA"
group_label = "satisfied"

[[record]]
chain = "CTCGAAAGGTCGTGCTCAGGTGACTATACCAAAC"
group_label = "satisfied"

[[record]]
chain = "AGAATGAGGTTATACGTATATCAGGGAAGAAAGT"
group_label = "satisfied"

[[record]]
chain = "AGTCAAAGTTCACTAGGTCACGTAAGATTCAGCT"
group_label = "satisfied"

[[record]]
chain = "GCGACTGGGGCAAAGTAGGTTACCATAAGGTTGG"
group_label = "not satisfied"

[[record]]
chain = "CCTACTGGGCCCTTCAGAGGTCATTGATCATATG"
group_label = "satisfied"

[[record]]
chain = "AGAATGAGGTTATTAAGATCAGGTAATTGCGGTC"
group_label = "satisfied"

[[record]]
chain = "CGAACGAGGGCAAGAGTTGATAGCAAATGCCGAT"
group_label = "not satisfied"

[[record]]
chain = "TATACAGGGTCACAGGCCAGAGTACGAATGTCGA"
group_label = "satisfied"

[[record]]
chain = "ACAGACAGGTGATGATGGTAACTCAGGCTATCAT"
group_label = "not satisfied"

[[record]]
chain = "GTACCAAGGTGAATAGGTTGTTGATGAGTAGGCG"
group_label = "not satisfied"

[[record]]
chain = "TAGCGTAGGTCATGGGCCAGTATACCACGCGAAC"
group_label = "satisfied"

